The measured values listed here are drawn from the supplement of paper PMC6555819.

System: PPARg:RXRa 270nM:90nM, anti-RXR (NR concentration 270 nM, RXRa partner concentration 90 nM)
TEST_DESCRIPTION: PBM binding z-score (relative to random genomic background probes); higher = stronger binding; sequences stand for … in GC…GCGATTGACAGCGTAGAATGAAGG
ENDPOINT: PBM binding z-score
# print the numeric value only

Example entries and their recorded answers appear below.
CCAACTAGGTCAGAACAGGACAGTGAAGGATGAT = 3.56
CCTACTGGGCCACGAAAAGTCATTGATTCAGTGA = 1.67

Query :: Return reported PBM binding z-score. Input sequence: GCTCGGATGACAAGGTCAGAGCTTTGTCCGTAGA
Result :: 0.444

Query :: Return reported PBM binding z-score. Input sequence: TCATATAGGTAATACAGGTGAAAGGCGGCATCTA
Result :: 3.69

Query :: Return reported PBM binding z-score. Input sequence: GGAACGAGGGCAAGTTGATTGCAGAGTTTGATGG
Result :: 1.03

Query :: Return reported PBM binding z-score. Input sequence: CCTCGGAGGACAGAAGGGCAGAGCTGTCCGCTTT
Result :: -0.994

Query :: Return reported PBM binding z-score. Input sequence: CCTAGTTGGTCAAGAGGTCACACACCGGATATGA
Result :: 5.36

###

Tested on: RARb:RXRa (NR concentration 270 nM, RXRa partner concentration 90 nM)
TEST_DESCRIPTION: PBM binding z-score (relative to random genomic background probes); higher = stronger binding; sequences stand for … in GC…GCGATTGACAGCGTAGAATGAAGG
Parameter class (string): assigned from measured PBM binding z-score. Ranges: low bracket = under 1, middle bracket = from 1 up to 3, high bracket = 3 and over

Check out these entries, answers already filled in.
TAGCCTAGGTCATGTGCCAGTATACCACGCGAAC = high bracket
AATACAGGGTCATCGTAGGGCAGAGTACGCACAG = high bracket
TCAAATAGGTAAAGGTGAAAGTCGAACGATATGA = middle bracket

Query :: GET /class?item= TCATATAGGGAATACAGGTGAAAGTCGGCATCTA
Result :: low bracket

Query :: GET /class?item= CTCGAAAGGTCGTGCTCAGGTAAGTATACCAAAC
Result :: high bracket

Query :: GET /class?item= TCTATTAGTTGATAAGGGCAACCGAAACAGCGGA
Result :: middle bracket

Query :: GET /class?item= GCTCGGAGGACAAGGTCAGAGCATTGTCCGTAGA
Result :: high bracket

Query :: GET /class?item= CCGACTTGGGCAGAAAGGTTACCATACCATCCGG
Result :: middle bracket

Query :: GET /class?item= ATCTCTAGGTAACGAGTTCAGTGAAAGAGAGGAC
Result :: middle bracket

Query :: GET /class?item= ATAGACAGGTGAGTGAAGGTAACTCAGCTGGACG
Result :: low bracket

Query :: GET /class?item= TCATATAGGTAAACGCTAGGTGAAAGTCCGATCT
Result :: low bracket

Query :: GET /class?item= TATACAGGGTCAAAGGCTAGAGTACGAATGTCGA
Result :: high bracket

Query :: GET /class?item= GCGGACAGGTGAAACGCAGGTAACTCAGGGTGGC
Result :: low bracket

###

System: PPARg:RXRa DBDmut IVT, anti-RXR (DBD mutation: RXRa K156A/R161A, NR concentration 270 nM, RXRa partner concentration 90 nM)
TEST_DESCRIPTION: PBM binding z-score (relative to random genomic background probes); higher = stronger binding; sequences stand for … in GC…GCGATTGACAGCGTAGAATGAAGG
Label Met when PBM binding z-score is at or above 3; otherwise label Not met.

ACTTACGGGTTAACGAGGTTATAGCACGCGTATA = Not met
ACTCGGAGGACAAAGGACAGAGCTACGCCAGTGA = Not met
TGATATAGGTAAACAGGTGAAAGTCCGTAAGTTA = Met
TAGCCTAGGTCACTGGGCCAGTATAGTACGCATC = Met

Query :: Please tell me: is the sequence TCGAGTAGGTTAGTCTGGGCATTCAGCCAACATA at or over 3 in terms of PBM binding z-score?
Result :: Not met

Query :: Please tell me: is the sequence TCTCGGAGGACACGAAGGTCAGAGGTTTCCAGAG at or over 3 in terms of PBM binding z-score?
Result :: Not met

###

Below is a list of entries, each paired with its recorded PBM binding z-score value.
Tested on: PPARg:RXRa IVT, anti-PPARg (NR concentration 270 nM, RXRa partner concentration 90 nM)
TEST_DESCRIPTION: PBM binding z-score (relative to random genomic background probes); higher = stronger binding; sequences stand for … in GC…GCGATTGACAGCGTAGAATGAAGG
# print the numeric value only

Example entries and their recorded answers appear below.
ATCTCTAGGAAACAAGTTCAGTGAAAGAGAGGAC = 0.373
GCTTGTACATCAAGGTTAAGAAAGACTAAGCTAA = 0.772
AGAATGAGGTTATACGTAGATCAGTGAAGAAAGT = 2.11
CCTCGGAGGACGACAGGAGGTCAGAGCTGCCAGA = -0.00812
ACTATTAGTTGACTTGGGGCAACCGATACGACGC = 0.607
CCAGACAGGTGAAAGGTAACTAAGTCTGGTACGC = 2.54

Pending sequence:
Query :: Return reported PBM binding z-score. Input sequence: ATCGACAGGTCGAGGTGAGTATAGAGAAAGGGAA
Result :: 0.778

###

System: LXRb:RXRa (NR concentration 270 nM, RXRa partner concentration 90 nM)
TEST_DESCRIPTION: PBM binding z-score (relative to random genomic background probes); higher = stronger binding; sequences stand for … in GC…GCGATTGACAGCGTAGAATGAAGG
ENDPOINT: PBM binding z-score
# print the numeric value only

TAGCCTTGGTCATGGGCCAGTATACCACGCGAAC = -0.54
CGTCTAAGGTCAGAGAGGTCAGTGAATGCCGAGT = 5.03
GCAGACAGGTTAAACGCAGGTAACTCAGGGTGGC = 0.687
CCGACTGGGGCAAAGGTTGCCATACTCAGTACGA = 0.302

Pending sequence:
Query :: Return reported PBM binding z-score. Input sequence: CAGCGTAGGTCAGGGCCAGTATAGGAGGAACGTT
Result :: 0.759

###

System: VDR homodimer (NR concentration 270 nM)
TEST_DESCRIPTION: PBM binding z-score (relative to random genomic background probes); higher = stronger binding; sequences stand for … in GC…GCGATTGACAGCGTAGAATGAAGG
Label condition met when PBM binding z-score is at or above 0.1; otherwise label condition not met.

Check out these entries, answers already filled in.
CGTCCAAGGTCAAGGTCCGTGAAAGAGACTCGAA = condition met
CCCTACGGGTCACTGACAGGTTATAGCATTTGGA = condition met
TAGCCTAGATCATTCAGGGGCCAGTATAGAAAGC = condition not met

Query :: Please tell me: is the sequence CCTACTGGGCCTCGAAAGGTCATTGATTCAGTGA at or over 0.1 in terms of PBM binding z-score?
Result :: condition met

Query :: Please tell me: is the sequence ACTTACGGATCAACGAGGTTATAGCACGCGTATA at or over 0.1 in terms of PBM binding z-score?
Result :: condition met

###

Tested on: RXRa DBDmut IVT, anti-RXR (DBD mutation: RXRa K156A/R161A, NR concentration 90 nM)
TEST_DESCRIPTION: PBM binding z-score (relative to random genomic background probes); higher = stronger binding; sequences stand for … in GC…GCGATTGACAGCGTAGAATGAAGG
ENDPOINT: PBM binding z-score
# print the numeric value only

Example entries and their recorded answers appear below.
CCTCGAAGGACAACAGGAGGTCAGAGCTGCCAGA = 0.237
CCTAGCAGGCCCGGGTCACTCAAGCATTTCGCTT = -0.519
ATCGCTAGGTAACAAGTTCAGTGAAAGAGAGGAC = 0.533
ACAGACAGGTGAGTGAAGGTAACTCGGCTGGACG = -0.351
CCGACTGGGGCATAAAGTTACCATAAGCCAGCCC = 0.0675

Query :: Return reported PBM binding z-score. Input sequence: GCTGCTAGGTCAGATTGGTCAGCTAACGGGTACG
Result :: 0.569

Query :: Return reported PBM binding z-score. Input sequence: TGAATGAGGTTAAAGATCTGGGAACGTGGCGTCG
Result :: 1.24

Query :: Return reported PBM binding z-score. Input sequence: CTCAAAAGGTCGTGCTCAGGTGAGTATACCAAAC
Result :: 2.02

Query :: Return reported PBM binding z-score. Input sequence: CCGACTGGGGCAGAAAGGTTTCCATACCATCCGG
Result :: -0.768

Query :: Return reported PBM binding z-score. Input sequence: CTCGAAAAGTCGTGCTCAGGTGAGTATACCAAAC
Result :: 0.322

Query :: Return reported PBM binding z-score. Input sequence: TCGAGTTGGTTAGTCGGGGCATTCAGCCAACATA
Result :: 1.41

Query :: Return reported PBM binding z-score. Input sequence: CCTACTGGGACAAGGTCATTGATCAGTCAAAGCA
Result :: 1.7
